readout-label: melting point

Past entries and their recorded results:
compound: FC(F)(F)c1ccc(-c2cc(Oc3ccc4cccnc4c3)nnc2Oc2ccc3cccnc3c2)cc1
melting point: 158 to 162 °C
--
compound: Cc1ccccc1CC(=O)c1c(O)c2cccnc2n(-c2cccc(OC(F)(F)F)c2)c1=O
melting point: 132 to 134 °C
--
compound: Cn1cc(-c2ccccc2)c(=O)c(-c2cc(Cl)ccc2Cl)c1
melting point: 156 °C
--
compound: CNC(=O)c1ccccc1C(O)c1ccc(F)cc1 (stereo not given)
melting point: 133 to 134 °C

Would you kindly look at the next entry?
Notebook: `CC(C)NC(=O)c1ccccc1F` , melting point read as 76 to 78 °C

====

readout-label: melting point

molecule: CCOC(=O)[C@H]1C2C[C@@H](O)[C@](O)(C(=O)OCc3ccccc3)[C@@H]21 (stereo partly specified)
melting point: 112 to 114 °C

Notebook: `O=C(c1ccccc1)N1CCc2[nH]c3cccc(-c4cc(F)cc(F)c4)c3c2CC1` , melting point read as 198 to 201 °C

Notebook: `ON=C1CCC(C2CCCCC2)=C1c1ccc(F)cc1` , melting point read as 173 to 176 °C

Notebook: `CC(C)c1csc(/C=C/c2cccc(NC(=O)Cc3ccccc3CC(=O)O)c2)n1` , melting point read as 144 to 146 °C

Notebook: `Nc1cc(O)nn1-c1c(Cl)cc(Cl)cc1Cl` , melting point read as 221 to 223 °C

Notebook: `S=C(NCc1cccnc1)NC(Cc1cccc2ccccc12)=Nc1ccccc1` , melting point read as 162 to 163 °C

Notebook: CN1Cc2cncn2C(c2ccc(Br)cc2)C1=O (stereo unspecified) , melting point read as 143 to 144 °C

Notebook: `Cn1nc2nnsc2c1C#N` , melting point read as 111 to 114 °C

Notebook: `Nc1cccc(-c2ccc3nnn(Cc4ccc5ncccc5c4)c3n2)c1` , melting point read as 187 to 189 °C

Notebook: CC(O)c1cc(Cl)ccc1O (stereo unspecified) , melting point read as 98 °C

Notebook: `Cc1ccc(-c2nc(CCC(=O)c3ccc(Br)s3)c(C)o2)cc1` , melting point read as 118 to 119 °C

Notebook: `CN(C)CCOCC1=Nc2cc(Cl)ccc2S(=O)(=O)N1` , melting point read as 219 to 221 °C

====

readout-label: melting point

Past entries and their recorded results:
chem-smiles: CS(=O)(=O)c1ccc(Oc2ccc(SC(F)(F)F)cc2)nc1
melting point: 134 to 135 °C

chem-smiles: N#Cc1c2cccccc-2n(CC(=O)O)c1=O
melting point: 294 to 295 °C

Would you kindly look at the next entry?
Notebook: `O=C(O)CCCOc1ccc2cc(-c3ccc4ccc(Cl)cc4n3)oc2c1` , melting point read as 200 to 201 °C

====

readout-label: melting point

Past entries and their recorded results:
compound: CS(=O)(=O)Nc1cc(NC(=O)CN2C(=O)c3ccccc3C2=O)ccc1Oc1ccccc1
melting point: 208 to 209 °C
--
compound: CCC1c2cccn2-c2ccc(F)cc2N1S(=O)(=O)c1cc(C)c(O)c(C)c1 (configuration not stated)
melting point: 216 to 218 °C
--
compound: COC1(c2cccc(S(=O)(=O)c3ccc(N(C)C(C)=O)c(Cl)c3)c2)CCOCC1
melting point: 119 to 121 °C
--
compound: CS(=O)(=O)c1ccc(C(Cc2ccc(F)cc2Cl)C(=O)Nc2nc3ccccc3o2)cc1 (configuration not stated)
melting point: 127 to 128 °C
--
compound: Cc1cc(Nc2ccn(-c3ccccc3)n2)cc(C)c1OC(=O)CC#N
melting point: 116 to 117 °C

Notebook: `COc1cc(OC)c2ncn(/C=C/C(=O)O)c(=O)c2c1` , melting point read as 305 to 307 °C

Notebook: `Nc1cc(F)c(F)cc1C(=O)NOCc1ccccc1` , melting point read as 125 to 126 °C
